# PROCEDURE_TEXT: Pharmacokinetic profile in mice after I.V. injection (LC-MS/MS of plasma, brain, liver, kidney)
# Format: in vivo, mouse
# SETUP_CONDITIONS: male, C57BL/6, mouse, iv; kidney, 200 mg/kg I.V.
QUANTITY_MEASURED: half-life (h)
// return numeric value only (unit: h, not printed)

Query (molecule): COc1cc(CC(=O)Nc2cc(C3CCC3)[nH]n2)cc(OC)c1OC ; field requested: half-life
9.65

###

# PROCEDURE_TEXT: Pharmacokinetic profile in mice after I.V. injection (LC-MS/MS of plasma, brain, liver, kidney)
# Assay type: in vivo, mouse
# SETUP_CONDITIONS: male, C57BL/6, mouse, iv; plasma, 100 mg/kg I.V.; read-out: AUC24h
QUANTITY_MEASURED: AUC(0-t) (µg·h/mL)
// return numeric value only (unit: µg·h/mL, not printed)

Query (compound): COc1cc(CC(=O)Nc2cc(C3CCC3)[nH]n2)cc(OC)c1OC [25–106] ; field requested: AUC(0-t)
8.38

###

# EXPERIMENTAL_SYSTEM: Cdk9/CyclinT1 (Homo sapiens)
# Sequence (P50750 whole entry, species assumed): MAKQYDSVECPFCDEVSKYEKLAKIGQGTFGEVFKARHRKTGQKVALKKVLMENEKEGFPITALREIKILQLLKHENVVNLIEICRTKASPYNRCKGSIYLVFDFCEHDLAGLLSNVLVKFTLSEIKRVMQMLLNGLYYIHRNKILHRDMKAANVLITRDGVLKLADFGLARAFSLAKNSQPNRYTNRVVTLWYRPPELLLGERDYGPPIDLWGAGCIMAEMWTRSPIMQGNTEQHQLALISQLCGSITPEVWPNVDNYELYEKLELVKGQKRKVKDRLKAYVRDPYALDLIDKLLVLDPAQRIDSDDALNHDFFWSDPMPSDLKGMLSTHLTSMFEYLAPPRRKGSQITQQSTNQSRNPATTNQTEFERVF
# Sequence (O60563 whole entry partner, species assumed): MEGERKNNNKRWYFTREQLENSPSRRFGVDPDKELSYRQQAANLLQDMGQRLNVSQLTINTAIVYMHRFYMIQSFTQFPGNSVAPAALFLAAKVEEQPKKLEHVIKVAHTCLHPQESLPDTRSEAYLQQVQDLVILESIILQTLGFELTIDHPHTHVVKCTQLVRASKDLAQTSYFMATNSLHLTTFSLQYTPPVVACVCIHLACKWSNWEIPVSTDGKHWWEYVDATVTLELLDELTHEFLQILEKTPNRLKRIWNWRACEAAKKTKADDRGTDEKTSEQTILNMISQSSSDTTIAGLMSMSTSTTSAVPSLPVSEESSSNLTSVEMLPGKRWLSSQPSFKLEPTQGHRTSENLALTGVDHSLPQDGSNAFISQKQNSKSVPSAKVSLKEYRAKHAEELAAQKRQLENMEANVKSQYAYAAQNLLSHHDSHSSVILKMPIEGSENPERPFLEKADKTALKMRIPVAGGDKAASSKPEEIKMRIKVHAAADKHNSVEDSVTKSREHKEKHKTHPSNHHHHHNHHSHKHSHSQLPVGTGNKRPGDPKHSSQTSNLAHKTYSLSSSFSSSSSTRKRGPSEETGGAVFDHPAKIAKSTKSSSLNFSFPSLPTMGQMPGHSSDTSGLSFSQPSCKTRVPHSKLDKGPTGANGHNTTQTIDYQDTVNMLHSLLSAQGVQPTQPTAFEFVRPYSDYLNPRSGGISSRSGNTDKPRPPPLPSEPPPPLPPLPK
# PROCEDURE_TEXT: In vitro dose-response kinase inhibition assay
# SETUP_CONDITIONS: 30 min, ATP 30 μM; read-out: IC50 CDK9/Cyclin T1
QUANTITY_MEASURED: IC50 (µM)
// return numeric value only (unit: µM, not printed)

Query (compound): COc1cc(CC(=O)Nc2cc(C3CCC3)[nH]n2)cc(OC)c1OC [25–106] ; field requested: IC50
5.71

###

# PROCEDURE_TEXT: Pharmacokinetic profile in mice after I.V. injection (LC-MS/MS of plasma, brain, liver, kidney)
# Assay type: in vivo, mouse
# SETUP_CONDITIONS: male, C57BL/6, mouse, iv; plasma, 100 mg/kg I.V.; read-out: Ke (converted)
QUANTITY_MEASURED: k el (s⁻¹)
// return numeric value only (unit: s⁻¹, not printed)

Query (compound): COc1cc(CC(=O)Nc2cc(C3CCC3)[nH]n2)cc(OC)c1OC [25–106] ; field requested: k el
2.5e-05

###

# PROCEDURE_TEXT: Pharmacokinetic profile in mice after I.V. injection (LC-MS/MS of plasma, brain, liver, kidney)
# Assay type: in vivo, mouse
# SETUP_CONDITIONS: male, C57BL/6, mouse, iv; plasma, 50 mg/kg I.V.; read-out: Ke (converted)
QUANTITY_MEASURED: k el (s⁻¹)
// return numeric value only (unit: s⁻¹, not printed)

Query (molecule): COc1cc(CC(=O)Nc2cc(C3CCC3)[nH]n2)cc(OC)c1OC ; field requested: k el
2.5e-05

###

# PROCEDURE_TEXT: Pharmacokinetic profile in mice after I.V. injection (LC-MS/MS of plasma, brain, liver, kidney)
# Format: in vivo, mouse
# SETUP_CONDITIONS: male, C57BL/6, mouse, brain, iv, 10 mg/kg, brain, 10 mg/kg I.V.; read-out: Cmax
QUANTITY_MEASURED: Cmax (ng/g)
// return numeric value only (unit: ng/g, not printed)

Query (compound): COc1cc(CC(=O)Nc2cc(C3CCC3)[nH]n2)cc(OC)c1OC ; field requested: Cmax
101

###

# PROCEDURE_TEXT: Pharmacokinetic profile in mice after I.V. injection (LC-MS/MS of plasma, brain, liver, kidney)
# Type: in vivo, mouse
# SETUP_CONDITIONS: male, C57BL/6, mouse, brain, iv, 100 mg/kg, brain, 100 mg/kg I.V.; read-out: Cmax
QUANTITY_MEASURED: Cmax (ng/g)
// return numeric value only (unit: ng/g, not printed)

Query (compound): COc1cc(CC(=O)Nc2cc(C3CCC3)[nH]n2)cc(OC)c1OC ; field requested: Cmax
377
